test: photoluminescence quantum yield (fraction); solvent given as SMILES; conditions: in ClCCl
Measured Metric: photoluminescence quantum yield
// no unit, no text: just the number

The reported photoluminescence quantum yield of the compound COCCOCCOCCOCC(COCCOCCOCCOC)Oc1cc(/C=C/c2ccc(/C=C(\C#N)c3ccncc3)cc2)c(OC(COCCOCCOCCOC)COCCOCCOCCOC)cc1/C=C/c1ccc(/C=C(\C#N)c2ccncc2)cc1 was 0.45

Briefly, photoluminescence quantum yield measured for CC(C)(C)c1ccc2c(c1)c1cc(C(C)(C)C)ccc1n2-c1ccc(C#Cc2ccc(C=C(C#N)C#N)cc2)cc1 : 0.4

Summary for this compound, COc1ccc(/C=C/c2nc(-c3ccc([N+](=O)[O-])cc3)[nH]c2/C=C/c2ccc(OC)cc2)cc1 : photoluminescence quantum yield is 0

Reported photoluminescence quantum yield ( COc1ccc(-c2c3ccccc3c(-c3ccc(OC)cc3)c3ccccc23)cc1 ) = 0.59

For reference, reported photoluminescence quantum yield for C(S/C=C/c1ccc(/C=C/SC=C2CCCCCC2)cc1)=C1CCCCCC1 stands at 0.109

Measured photoluminescence quantum yield, Cc1ccc(-c2cccc3ncc(-c4ccccc4)n23)cc1 : 0.28

Lab note: c1ccc(-n2c(-c3ccc(N(c4ccc(-c5ccc(N(c6ccc(-c7nc8c9ccccc9c9ccccc9c8n7-c7ccccc7)cc6)c6ccc(-c7nc8c9ccccc9c9ccccc9c8n7-c7ccccc7)cc6)cc5)cc4)c4ccc(-c5nc6c7ccccc7c7ccccc7c6n5-c5ccccc5)cc4)cc3)nc3c4ccccc4c4ccccc4c32)cc1 gave photoluminescence quantum yield of 0.206
